# System: morningglory
# ASSAY DETAILS: Test A postemergence
# Assay type: in vivo, Ipomoea spp.
# CONDITION LABEL: postemergence, 125 g ai/ha, about 10 days, visual rating on 0 to 100 scale (0 no effect, 100 complete control)
REPORTED ENDPOINT: Morningglory plant response rating

What measured Morningglory plant response rating goes with Cc1cc(C(=O)NCC(F)(F)F)nn1Cc1cccc(OC(F)(F)F)c1 ?
40

What measured Morningglory plant response rating goes with CCCNC(=O)c1cc(COC)n(Cc2ccnc(C(F)(F)F)c2)n1 ?
70

What measured Morningglory plant response rating goes with Cc1cc(C(=O)NCC(F)(F)F)nn1Cc1cccc(C(F)(F)F)c1 ?
40

What measured Morningglory plant response rating goes with CCCNC(=O)c1cc(CC)n(Cc2cc(C(F)(F)F)nn2CC)n1 ?
60

What measured Morningglory plant response rating goes with CCc1cc(C(=O)NC(C)C)nn1Cc1cc(C(F)(F)F)nn1CC ?
80

What measured Morningglory plant response rating goes with Cc1cc(C(=O)NC2CC2)nn1Oc1ccnc(C(F)(F)F)c1 ?
30

What measured Morningglory plant response rating goes with CCc1cc(C(=O)NC2CC2)nn1Cc1cccc(C(F)(F)F)n1 ?
10

What measured Morningglory plant response rating goes with CCCNC(=O)c1cc(CCF)n(Cc2ccnc(C(F)(F)F)c2)n1 ?
100

What measured Morningglory plant response rating goes with CCc1cc(C(=O)Nc2ccc(F)cc2)nn1Oc1ccnc(C(F)(F)F)c1 ?
0

---

# Test system: corn
# ASSAY DETAILS: Test C postemergence
# Assay type: in vivo, Zea mays
# CONDITION LABEL: postemergence, 62 g ai/ha; scale 0 to 100
Give measured Corn plant response rating for each item. Keep answers brief.

What measured Corn plant response rating goes with CCc1cc(C(=O)NCC(F)(F)F)nn1Cc1ccnc(Br)c1 ?
5

What measured Corn plant response rating goes with CCc1cc(-c2ccc(C(F)(F)F)cc2)nn1Cc1ccnc(C(F)(F)F)c1 ?
15

What measured Corn plant response rating goes with CCc1cc(C(=O)NCC(F)(F)F)nn1Cc1ccnc(SC(F)(F)F)c1 ?
5

What measured Corn plant response rating goes with CCCNC(=O)c1cc(OCC)n(Cc2ccnc(OC(F)F)c2)n1 ?
10

---

Give measured Velvetleaf plant response rating (0 to 100 scale) for each item. Keep answers brief.
# Test system: velvetleaf
# ASSAY DETAILS: Test A preemergence
# Assay type: in vivo, Abutilon theophrasti
# CONDITION LABEL: preemergence, 125 g ai/ha, visual injury approx. 10 days after treatment
# output: bare number, no unit

What measured Velvetleaf plant response rating (0 to 100 scale) goes with CCCCNC(=O)c1cc(Br)n(Cc2cccc(C(F)(F)F)c2)n1 [Compound 162] ?
0

What measured Velvetleaf plant response rating (0 to 100 scale) goes with CCc1cc(C(=O)NCC(F)(F)F)nn1Oc1cccc(C(F)(F)F)c1 [Compound 218] ?
0

What measured Velvetleaf plant response rating (0 to 100 scale) goes with CCCNC(=O)c1cc(OCC)n(Cc2ccnc(C(F)(F)F)c2)n1 [Compound 187] ?
100

What measured Velvetleaf plant response rating (0 to 100 scale) goes with CCCc1cc(C(=O)NC(C)C)nn1Cc1cc(C(F)(F)F)nn1C [Compound 201] ?
100

What measured Velvetleaf plant response rating (0 to 100 scale) goes with COCc1cc(C(=O)NC2CC2)nn1Cc1ccnc(C(F)(F)F)c1 [Compound 167] ?
30

What measured Velvetleaf plant response rating (0 to 100 scale) goes with CCCc1cc(C(=O)NOC(C)C)nn1Cc1cc(C(F)(F)F)nn1C [Compound 203] ?
30

What measured Velvetleaf plant response rating (0 to 100 scale) goes with CCCCNC(=O)c1cc(I)n(Cc2cccc(C(F)(F)F)c2)n1 [Compound 182] ?
0

What measured Velvetleaf plant response rating (0 to 100 scale) goes with CCCNC(=O)c1cc(CC)n(Oc2cccc(OC(F)(F)F)c2)n1 [Compound 219] ?
0

What measured Velvetleaf plant response rating (0 to 100 scale) goes with O=C(NC1CC1)c1cc(CCF)n(Cc2ccnc(C(F)(F)F)c2)n1 [Compound 176] ?
50

---

Give measured Pigweed plant response rating for each item. Keep answers brief.
# Tested on: pigweed
# ASSAY DETAILS: Test A postemergence
# Type: in vivo, Amaranthus retroflexus
# CONDITION LABEL: Postemergence, 1000 g ai/ha; visual rating after approx. 10 days, 0 to 100 scale (0 no effect, 100 complete control)
# output: bare number, no unit

Reported Pigweed plant response rating for pigweed, given CCc1cc(C(=O)NCC2CC2)nn1Cc1cccc(OC(F)(F)F)c1 [Compound 53] ?
80

Reported Pigweed plant response rating for pigweed, given CCc1cc(C(=O)NC2CC2)nn1Cc1cccc(C(F)(F)F)c1 [Compound 15] ?
80

Reported Pigweed plant response rating for pigweed, given CCCNC(=O)c1cc(SC)n(Cc2cccc(C(F)(F)F)c2)n1 [Compound 25] ?
10

Reported Pigweed plant response rating for pigweed, given C#CCNC(=O)c1cc(CC)n(Cc2cccc(OC(F)(F)F)c2)n1 [Compound 54] ?
70

Reported Pigweed plant response rating for pigweed, given CCc1cc(C(=O)NC(C)(C)C)nn1Cc1cccc(OC(F)(F)F)c1 [Compound 59] ?
50

---

# Tested on: morningglory
# ASSAY DETAILS: Test A preemergence
# Format: in vivo, Ipomoea spp.
# CONDITION LABEL: preemergence, 500 g ai/ha, visual injury after approx. 10 days, 0 to 100 scale (0 no effect, 100 complete control)
Give measured Morningglory plant response rating for each item. Keep answers brief.
# output: bare number, no unit

What measured Morningglory plant response rating goes with CCCc1cc(C(=O)NC(C)C)nn1Cc1ccnc(C(F)(F)F)c1 [Compound 186] ?
100

What measured Morningglory plant response rating goes with CCNC(=O)c1cc(CC)n(Cc2cc(C(F)(F)F)nn2C)n1 [Compound 154] ?
100

What measured Morningglory plant response rating goes with CCOc1cc(C(=O)NCC(F)(F)F)nn1Cc1cc(C(F)(F)F)nn1C [Compound 140] ?
100

What measured Morningglory plant response rating goes with CCc1cc(C(=O)NCC(F)(F)F)nn1Cc1nc(C(F)(F)F)nn1C [Compound 107] ?
100

What measured Morningglory plant response rating goes with CCc1cc(C(=O)NCC(F)(F)C(F)(F)F)nn1Cc1ccnc(C(F)(F)F)c1 [Compound 102] ?
50

What measured Morningglory plant response rating goes with CCCNC(=O)c1cc(COC)n(Cc2ccnc(C(F)(F)F)c2)n1 [Compound 168] ?
100

What measured Morningglory plant response rating goes with CCc1cc(C(=O)Nc2ccc(F)cc2)nn1Oc1ccnc(C(F)(F)F)c1 [Compound 89] ?
0

What measured Morningglory plant response rating goes with CCc1cc(C(=O)NC2CC2)nn1Cc1nnc(C(F)(F)F)o1 [Compound 172] ?
40

What measured Morningglory plant response rating goes with CCCc1cc(-c2ccc(C(F)(F)F)cc2)nn1Cc1ccnc(C(F)(F)F)c1 [Compound 113] ?
70

What measured Morningglory plant response rating goes with CCc1cc(C(=O)NC2CC2)nn1Cc1cccc(C(F)(F)F)n1 [Compound 91] ?
0

What measured Morningglory plant response rating goes with CCCc1cc(C(=O)NC(C)C)nn1Cc1cc(C(F)(F)F)nn1C [Compound 201] ?
100

What measured Morningglory plant response rating goes with O=C(NCC(F)(F)F)c1cc(CCF)n(Cc2ccnc(C(F)(F)F)c2)n1 [Compound 175] ?
100

What measured Morningglory plant response rating goes with CCCc1cc(C(=O)NC2CC2)nn1Cc1cc(C(F)(F)F)nn1C [Compound 202] ?
100

What measured Morningglory plant response rating goes with O=C(NCC(F)(F)F)c1cc(Cl)n(Cc2cccc(C(F)(F)F)c2)n1 [Compound 170] ?
0

What measured Morningglory plant response rating goes with CCONC(=O)c1cc(CC)n(Cc2ccnc(OC(F)F)c2)n1 [Compound 131] ?
100

What measured Morningglory plant response rating goes with O=C(NCC(F)(F)F)c1cc(Br)n(Cc2cccc(C(F)(F)F)c2)n1 [Compound 161] ?
0

---

# Tested on: Italian ryegrass
# ASSAY DETAILS: Test A postemergence
# Type: in vivo, Lolium multiflorum
# CONDITION LABEL: postemergence, 125 g ai/ha, about 10 days, visual rating on 0 to 100 scale (0 no effect, 100 complete control)
Give measured Italian Ryegrass plant response rating for each item. Keep answers brief.
# output: bare number, no unit

What measured Italian Ryegrass plant response rating goes with CCc1cc(C(=O)NC2CC2)nn1Cc1cc(C(F)(F)F)no1 ?
10

What measured Italian Ryegrass plant response rating goes with CCCc1cc(C(=O)NCC(F)(F)F)nn1Cc1ccnc(OC(F)F)c1 ?
80

What measured Italian Ryegrass plant response rating goes with CCOc1cc(C(=O)NCC(F)(F)F)nn1Cc1ccnc(OC(F)F)c1 ?
90

What measured Italian Ryegrass plant response rating goes with CCc1cc(C(=O)NOC(C)C)nn1Cc1ccnc(OC(F)F)c1 ?
90
